Attribution: patent US20250230154A1

- system: SHP2 protein (Homo sapiens, UniProt Q06124)
- Sequence (Q06124 1-593): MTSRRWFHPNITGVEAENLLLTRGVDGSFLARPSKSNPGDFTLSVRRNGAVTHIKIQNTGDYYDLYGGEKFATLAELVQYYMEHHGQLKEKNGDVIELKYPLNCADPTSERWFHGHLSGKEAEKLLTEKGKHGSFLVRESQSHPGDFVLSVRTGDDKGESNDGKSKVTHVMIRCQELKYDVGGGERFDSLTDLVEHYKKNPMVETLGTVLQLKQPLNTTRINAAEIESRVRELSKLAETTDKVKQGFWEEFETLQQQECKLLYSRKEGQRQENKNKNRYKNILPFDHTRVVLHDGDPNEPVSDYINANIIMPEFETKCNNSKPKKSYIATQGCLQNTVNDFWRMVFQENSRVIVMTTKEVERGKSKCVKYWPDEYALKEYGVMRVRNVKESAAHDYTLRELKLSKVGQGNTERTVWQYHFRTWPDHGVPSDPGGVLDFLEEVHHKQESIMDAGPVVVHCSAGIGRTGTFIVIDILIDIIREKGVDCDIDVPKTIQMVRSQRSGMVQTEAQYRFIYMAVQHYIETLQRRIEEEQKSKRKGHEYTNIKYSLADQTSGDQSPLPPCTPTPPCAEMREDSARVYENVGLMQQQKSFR
- test: Measurement of SHP2 protein degradation in MV-4-11 cells (western blotting)
- Type: cell-based
- Parameters: endogenous in cells; host or cells: MV-4-11
- cond: MV-4-11 cells, 10 nM, 24 hours
reported property: SHP2 degradation (%) 10 nM
Answer with a number only, understood to be in %.

Task item: Param readout = SHP2 degradation (%) 10 nM; param system = SHP2 protein (Homo sapiens, UniProt Q06124); param query = `Cc1ncsc1-c1ccc(CNC(=O)[C@@H]2C[C@@H](O)CN2C(=O)[C@@H](NC(=O)C2(F)CC2)C(C)(C)C)c(OCCC2CCN(C(=O)C3(C(=O)Nc4cccc(Sc5cnc(N6CCC(C)(CN)CC6)cn5)c4Cl)CC3)CC2)c1` ; response: value
Reply: −2.5

* * *

- system: SHP2 protein (Homo sapiens)
- test: Measurement of SHP2 protein degradation in KYSE-520 cells (western blotting)
- Type: cell-based
- Set-up: endogenous in cells
- cond: 1000 nM, 24 hours
Exam item: assign rule met to entries whose SHP2 degradation (%) 1000 nM is below 80% and rule not met to entries at or above 80%. Note that a value of exactly 80% receives rule not met.

Task item: Is SHP2 degradation (%) 1000 nM strictly under 80% for the entry `Cc1ncsc1-c1ccc(CNC(=O)[C@@H]2C[C@@H](O)CN2C(=O)[C@@H](NC(=O)C2(F)CC2)C(C)(C)C)c(OCCCN2CCC(CC(=O)Nc3cccc(Sc4cnc(N5CCC(C)(CN)CC5)cn4)c3Cl)CC2)c1` ?
Reply: rule not met

Task item: Now give it for `Cc1ncsc1-c1ccc(CNC(=O)[C@@H]2C[C@@H](O)CN2C(=O)[C@@H](NC(=O)C2(F)CC2)C(C)(C)C)c(OCCCCCC(=O)N2CCC(CCCC(=O)Nc3cccc(Sc4cnc(N5CCC(C)(CN)CC5)cn4)c3Cl)CC2)c1` too.
Reply: rule not met

Task item: Now give it for `Cc1ncsc1-c1ccc(CNC(=O)[C@@H]2C[C@@H](O)CN2C(=O)[C@@H](NC(=O)C2(F)CC2)C(C)(C)C)c(OCCCC(=O)N2CCC(CCCC(=O)Nc3cccc(Sc4cnc(N5CCC(C)(CN)CC5)cn4)c3Cl)CC2)c1` too.
Reply: rule not met

* * *

- system: SHP2 protein (Homo sapiens)
- test: Measurement of SHP2 protein degradation in KYSE-520 cells (western blotting)
- Format: cell-based
- Design: endogenous in cells
- cond: 10 nM, 24 hours
- Procedure: Experimental Example 1: Measurement of SHP2 Protein Degradation in KYSE-520 Cells KYSE-520 cells were treated with the synthesized Example compound, and the amount of SHP2 protein present in the cells was measured using western blotting detection. […] [Cell Lysis and Protein Quantification] […] Then, absorbance was measured at 562 nm with the SYNERGY H1 microplate reader from BioTek. After making a sample by quantifying the protein with the measured value, boiling was performed at 70° C. for 10 minutes. […]
reported property: SHP2 degradation (%) 10 nM
Answer with a number only, understood to be in %.

Example entries and their recorded answers appear below.
# entry smiles, system, readout units, SHP2 degradation (%) 10 nM
data = [
    ("Cc1ncsc1-c1ccc(CNC(=O)[C@@H]2C[C@@H](O)CN2C(=O)[C@@H](NC(=O)C2(F)CC2)C(C)(C)C)c(OCCN2CCC(CC(=O)Nc3cccc(Sc4cnc(N5CCC(C)(CN)CC5)cn4)c3Cl)CC2)c1", "SHP2 protein (Homo sapiens)", "%", 3.4),
    ("Cc1ncsc1-c1ccc(CNC(=O)[C@@H]2C[C@@H](O)CN2C(=O)[C@@H](NC(=O)C2(F)CC2)C(C)(C)C)c(OCCN2CCC(CCC(=O)Nc3cccc(Sc4cnc(N5CCC(C)(CN)CC5)cn4)c3Cl)CC2)c1", "SHP2 protein (Homo sapiens)", "%", "−6.1"),
    ("Cc1ncsc1-c1ccc(CNC(=O)[C@@H]2C[C@@H](O)CN2C(=O)[C@@H](NC(=O)C2(F)CC2)C(C)(C)C)c(OCCN2CCC(CCCC(=O)Nc3cccc(Sc4cnc(N5CCC(C)(CN)CC5)cn4)c3Cl)CC2)c1", "SHP2 protein (Homo sapiens)", "%", "−24.3"),
]

Consider the additional molecule presented here.
Task item: Param readout = SHP2 degradation (%) 10 nM; param system = SHP2 protein (Homo sapiens); param query = `Cc1ncsc1-c1ccc(CNC(=O)[C@@H]2C[C@@H](O)CN2C(=O)[C@@H](NC(=O)C2(F)CC2)C(C)(C)C)c(OCCCCCCN2CCC(C(=O)Nc3cccc(Sc4cnc(N5CCC(C)(CN)CC5)cn4)c3Cl)CC2)c1` ; response: value
Reply: −15.6

* * *

- system: SHP2 protein (Homo sapiens, UniProt Q06124)
- test: Measurement of SHP2 protein degradation in MV-4-11 cells (western blotting)
- Type: cell-based
- Set-up: endogenous in cells; host or cells: MV-4-11
- cond: MV-4-11 cells, 100 nM, 24 hours
reported property: SHP2 degradation (%) 100 nM
Answer with a number only, understood to be in %.

Example entries and their recorded answers appear below.
# entry smiles, SHP2 degradation (%) 100 nM
records = [
    ("Cc1ncsc1-c1ccc(CNC(=O)[C@@H]2C[C@@H](O)CN2C(=O)[C@@H](NC(=O)C2CC2)C(C)(C)C)c(OCCCN2CCN(CC(=O)Nc3cccc(Sc4cnc(N5CCC(C)(CN)CC5)cn4)c3Cl)C(=O)C2)c1", 98.2),
    ("Cc1ncsc1-c1ccc(CNC(=O)[C@@H]2C[C@@H](O)CN2C(=O)[C@@H](NC(=O)C2(F)CC2)C(C)(C)C)c(OC2CC3(CCN(c4cnc(C(=O)Nc5cccc(Sc6cnc(N7CCC(C)(CN)CC7)cn6)c5Cl)nc4)CC3)C2)c1", 45.5),
    ("Cc1ncsc1-c1ccc(CNC(=O)[C@@H]2C[C@@H](O)CN2C(=O)[C@@H](NC(=O)C2(F)CC2)C(C)(C)C)c(OCCC2CCN(C(=O)C3(C(=O)Nc4cccc(Sc5cnc(N6CCC(C)(CN)CC6)cn5)c4Cl)CC3)CC2)c1", 21.1),
]

Consider the additional molecule presented here.
Task item: Param readout = SHP2 degradation (%) 100 nM; param system = SHP2 protein (Homo sapiens, UniProt Q06124); param query = `Cc1ncsc1-c1ccc(CNC(=O)[C@@H]2C[C@@H](O)CN2C(=O)[C@@H](NC(=O)C2(F)CC2)C(C)(C)C)c(OCCCN2CCN(CC(=O)Nc3cccc(Sc4cnc(N5CCC(C)(CN)CC5)cn4)c3Cl)C(=O)C2)c1` ; response: value
Reply: 99.5

* * *

Readings of SHP2 degradation (%) 10 nM for the listed compounds
- system: SHP2 protein (Homo sapiens)
- test: Measurement of SHP2 protein degradation in MV-4-11 cells (western blotting)
- Type: cell-based
- Set-up: endogenous in cells; host or cells: MV-4-11
- cond: MV-4-11 cells, 10 nM, 24 hours
Quick note: unit goes after the number.

# entry smiles, SHP2 degradation (%) 10 nM
records = [
    ("Cc1ncsc1-c1ccc(CNC(=O)[C@@H]2C[C@@H](O)CN2C(=O)[C@@H](NC(=O)C2CC2)C(C)(C)C)c(OCCCN2CCN(CC(=O)Nc3cccc(Sc4cnc(N5CCC(C)(CN)CC5)cn4)c3Cl)C(=O)C2)c1", "83.1%"),
    ("Cc1ncsc1-c1ccc(CNC(=O)[C@@H]2C[C@@H](O)CN2C(=O)[C@@H](NC(=O)C2(F)CC2)C(C)(C)C)c(OCCCN2CCN(C(=O)CC(=O)Nc3cccc(Sc4cnc(N5CCC(C)(CN)CC5)cn4)c3Cl)CC2)c1", "59%"),
    ("Cc1ncsc1-c1ccc(CNC(=O)[C@@H]2C[C@@H](O)CN2C(=O)[C@@H](NC(=O)C2(F)CC2)C(C)(C)C)c(OCCCN2CCC(O)(CC(=O)Nc3cccc(Sc4cnc(N5CCC(C)(CN)CC5)cn4)c3Cl)CC2)c1", "54.9%"),
    ("Cc1ncsc1-c1ccc(CNC(=O)[C@@H]2C[C@@H](O)CN2C(=O)[C@@H](NC(=O)C2(F)CC2)C(C)(C)C)c(OC2CC3(CCN(C(=O)CC(=O)Nc4cccc(Sc5cnc(N6CCC(C)(CN)CC6)cn5)c4Cl)CC3)C2)c1", "91.5%"),
]

Consider the additional compound presented here.
Task item: Quick check: SHP2 degradation (%) 10 nM of `Cc1ncsc1-c1ccc(CNC(=O)[C@@H]2C[C@@H](O)CN2C(=O)[C@@H](NC(=O)C2(F)CC2)C(C)(C)C)c(OCCN2CCN(C(=O)CC(=O)Nc3cccc(Sc4cnc(N5CCC(C)(CN)CC5)cn4)c3Cl)[C@@H](C)C2)c1` ?
Reply: 90.5%
